Where these numbers come from: the supplement of paper PMC9112550

- Test system: Escherichia coli TOP10
- method_description: shrunken log2 fold change of peptide-encoding DNA abundance (4.5 h post-induction vs induction); higher = less antimicrobial activity (less host growth inhibition)
- measurement_parameters: time post-induction: 4.5 h; library: site-saturation at positions 5, 18, 19, 20
The class of a record is decided solely by its measured shrunken log2 fold change; consult range 1 = under -0.08, range 2 = from -0.08 up to 0.2, range 3 = 0.2 and over

record_sequence: RRIRTRPPRLPRPRPRPCQIPRP
qualitative_label: range 2
--
record_sequence: RRIRDRPPRLPRPRPRPHITPRP
qualitative_label: range 1
--
record_sequence: RRIRYRPPRLPRPRPRPHLMPRP
qualitative_label: range 1
--
record_sequence: RRIRRRPPRLPRPRPRPMPCPRP
qualitative_label: range 2
--
record_sequence: RRIRSRPPRLPRPRPRPACDPRP
qualitative_label: range 2
--
record_sequence: RRIRSRPPRLPRPRPRPQFRPRP
qualitative_label: range 2
--
record_sequence: RRIRDRPPRLPRPRPRPPVNPRP
qualitative_label: range 3
--
record_sequence: RRIRYRPPRLPRPRPRPAVWPRP
qualitative_label: range 2
--
record_sequence: RRIRARPPRLPRPRPRPKKRPRP
qualitative_label: range 3
--
record_sequence: RRIRYRPPRLPRPRPRPLWFPRP
qualitative_label: range 1
--
record_sequence: RRIRGRPPRLPRPRPRPVRFPRP
qualitative_label: range 3
--
record_sequence: RRIRLRPPRLPRPRPRPELHPRP
qualitative_label: range 3
--
record_sequence: RRIRPRPPRLPRPRPRPRQHPRP
qualitative_label: range 2
--
record_sequence: RRIRTRPPRLPRPRPRPDSGPRP
qualitative_label: range 2
--
record_sequence: RRIRNRPPRLPRPRPRPQTGPRP
qualitative_label: range 1

###

- Tested on: Escherichia coli TOP10
- method_description: shrunken log2 fold change of peptide-encoding DNA abundance (4.5 h post-induction vs induction); higher = less antimicrobial activity (less host growth inhibition)
- measurement_parameters: time post-induction: 4.5 h; library: site-saturation at positions 5, 18, 19, 20

record_sequence: RRIRFRPPRLPRPRPRPYYWPRP
shrunken log2 fold change: -0.485
--
record_sequence: RRIRGRPPRLPRPRPRPCWGPRP
shrunken log2 fold change: 0.157
--
record_sequence: RRIRDRPPRLPRPRPRPWCWPRP
shrunken log2 fold change: 0.036
--
record_sequence: RRIRVRPPRLPRPRPRPYKYPRP
shrunken log2 fold change: -0.835
--
record_sequence: RRIRVRPPRLPRPRPRPLPDPRP
shrunken log2 fold change: -0.0431
--
record_sequence: RRIRKRPPRLPRPRPRPPGSPRP
shrunken log2 fold change: 0.618
--
record_sequence: RRIRIRPPRLPRPRPRPFRKPRP
shrunken log2 fold change: -0.169
--
record_sequence: RRIRMRPPRLPRPRPRPFAKPRP
shrunken log2 fold change: 0.3
--
record_sequence: RRIRCRPPRLPRPRPRPESGPRP
shrunken log2 fold change: 0.0145
--
record_sequence: RRIRNRPPRLPRPRPRPDAGPRP
shrunken log2 fold change: 0.391
--
record_sequence: RRIRSRPPRLPRPRPRPDDGPRP
shrunken log2 fold change: 0.00408
--
record_sequence: RRIRFRPPRLPRPRPRPDVWPRP
shrunken log2 fold change: 0.128
--
record_sequence: RRIRFRPPRLPRPRPRPGIQPRP
shrunken log2 fold change: -0.11
--
record_sequence: RRIRSRPPRLPRPRPRPKFAPRP
shrunken log2 fold change: 0.0751
--
record_sequence: RRIRGRPPRLPRPRPRPSVLPRP
shrunken log2 fold change: 0.389

###

# shrunken log2 fold change per record follows
- Tested on: Escherichia coli TOP10
- method_description: shrunken log2 fold change of peptide-encoding DNA abundance (4.5 h post-induction vs induction); higher = less antimicrobial activity (less host growth inhibition)
- measurement_parameters: time post-induction: 4.5 h; library: site-saturation at positions 5, 18, 19, 20

record_sequence: RRIRQRPPRLPRPRPRPQWHPRP
shrunken log2 fold change: -0.0165

record_sequence: RRIRERPPRLPRPRPRPDAFPRP
shrunken log2 fold change: -0.038

record_sequence: RRIRWRPPRLPRPRPRPMVQPRP
shrunken log2 fold change: 0.121

record_sequence: RRIRSRPPRLPRPRPRPNVQPRP
shrunken log2 fold change: -0.335

record_sequence: RRIRKRPPRLPRPRPRPCSFPRP
shrunken log2 fold change: -0.397

record_sequence: RRIRYRPPRLPRPRPRPVCHPRP
shrunken log2 fold change: -0.583

record_sequence: RRIRCRPPRLPRPRPRPIPRPRP
shrunken log2 fold change: 0.73

record_sequence: RRIRIRPPRLPRPRPRPYEWPRP
shrunken log2 fold change: -0.00783

record_sequence: RRIRCRPPRLPRPRPRPKFMPRP
shrunken log2 fold change: -0.527

record_sequence: RRIRNRPPRLPRPRPRPRCHPRP
shrunken log2 fold change: -0.572

record_sequence: RRIRLRPPRLPRPRPRPSFDPRP
shrunken log2 fold change: -0.373

record_sequence: RRIRPRPPRLPRPRPRPAWLPRP
shrunken log2 fold change: 0.513

record_sequence: RRIRCRPPRLPRPRPRPRVCPRP
shrunken log2 fold change: 0.284

record_sequence: RRIRLRPPRLPRPRPRPYVDPRP
shrunken log2 fold change: -0.0393

record_sequence: RRIRERPPRLPRPRPRPCNSPRP
shrunken log2 fold change: 0.00408

###

- Tested on: Escherichia coli TOP10
- method_description: shrunken log2 fold change of peptide-encoding DNA abundance (4.5 h post-induction vs induction); higher = less antimicrobial activity (less host growth inhibition)
- measurement_parameters: time post-induction: 4.5 h; library: site-saturation at positions 5, 18, 19, 20
measure_name: shrunken log2 fold change

record_sequence: RRIRQRPPRLPRPRPRPIQIPRP
assayed_target: Escherichia coli TOP10
measure_name: shrunken log2 fold change
reported: -0.105
//
record_sequence: RRIRVRPPRLPRPRPRPNRYPRP
assayed_target: Escherichia coli TOP10
measure_name: shrunken log2 fold change
reported: -0.4
//
record_sequence: RRIRKRPPRLPRPRPRPPCRPRP
assayed_target: Escherichia coli TOP10
measure_name: shrunken log2 fold change
reported: 0.264
//
record_sequence: RRIRYRPPRLPRPRPRPNYTPRP
assayed_target: Escherichia coli TOP10
measure_name: shrunken log2 fold change
reported: -0.562
//
record_sequence: RRIRVRPPRLPRPRPRPMVVPRP
assayed_target: Escherichia coli TOP10
measure_name: shrunken log2 fold change
reported: -0.0329
//
record_sequence: RRIRARPPRLPRPRPRPEFGPRP
assayed_target: Escherichia coli TOP10
measure_name: shrunken log2 fold change
reported: 0.874
//
record_sequence: RRIRLRPPRLPRPRPRPSMTPRP
assayed_target: Escherichia coli TOP10
measure_name: shrunken log2 fold change
reported: 1.72
//
record_sequence: RRIRARPPRLPRPRPRPTGAPRP
assayed_target: Escherichia coli TOP10
measure_name: shrunken log2 fold change
reported: 0.906
//
record_sequence: RRIRVRPPRLPRPRPRPVMTPRP
assayed_target: Escherichia coli TOP10
measure_name: shrunken log2 fold change
reported: 0.0124
//
record_sequence: RRIRCRPPRLPRPRPRPCVEPRP
assayed_target: Escherichia coli TOP10
measure_name: shrunken log2 fold change
reported: -0.0788
//
record_sequence: RRIRNRPPRLPRPRPRPLFHPRP
assayed_target: Escherichia coli TOP10
measure_name: shrunken log2 fold change
reported: -0.595
//
record_sequence: RRIRRRPPRLPRPRPRPPFNPRP
assayed_target: Escherichia coli TOP10
measure_name: shrunken log2 fold change
reported: 0.333
//
record_sequence: RRIRIRPPRLPRPRPRPYRPPRP
assayed_target: Escherichia coli TOP10
measure_name: shrunken log2 fold change
reported: -0.0527
//
record_sequence: RRIRLRPPRLPRPRPRPKATPRP
assayed_target: Escherichia coli TOP10
measure_name: shrunken log2 fold change
reported: -0.116
//
record_sequence: RRIRARPPRLPRPRPRPTNFPRP
assayed_target: Escherichia coli TOP10
measure_name: shrunken log2 fold change
reported: -0.0105
//
record_sequence: RRIRARPPRLPRPRPRPRSMPRP
assayed_target: Escherichia coli TOP10
measure_name: shrunken log2 fold change
reported: 0.42
//
record_sequence: RRIRARPPRLPRPRPRPCWSPRP
assayed_target: Escherichia coli TOP10
measure_name: shrunken log2 fold change
reported: -0.142
//
record_sequence: RRIRCRPPRLPRPRPRPFYKPRP
assayed_target: Escherichia coli TOP10
measure_name: shrunken log2 fold change
reported: 0.979
//
record_sequence: RRIRMRPPRLPRPRPRPQVRPRP
assayed_target: Escherichia coli TOP10
measure_name: shrunken log2 fold change
reported: -0.0122
//
record_sequence: RRIRFRPPRLPRPRPRPQGPPRP
assayed_target: Escherichia coli TOP10
measure_name: shrunken log2 fold change
reported: 0.0563
//
record_sequence: RRIRGRPPRLPRPRPRPVEPPRP
assayed_target: Escherichia coli TOP10
measure_name: shrunken log2 fold change
reported: 0.79
//
record_sequence: RRIRQRPPRLPRPRPRPLPSPRP
assayed_target: Escherichia coli TOP10
measure_name: shrunken log2 fold change
reported: -0.0393
//
record_sequence: RRIRARPPRLPRPRPRPSDQPRP
assayed_target: Escherichia coli TOP10
measure_name: shrunken log2 fold change
reported: -0.0615
//
record_sequence: RRIRWRPPRLPRPRPRPDHRPRP
assayed_target: Escherichia coli TOP10
measure_name: shrunken log2 fold change
reported: -0.0843
//
record_sequence: RRIRYRPPRLPRPRPRPNCSPRP
assayed_target: Escherichia coli TOP10
measure_name: shrunken log2 fold change
reported: -0.973
//
record_sequence: RRIRQRPPRLPRPRPRPWPIPRP
assayed_target: Escherichia coli TOP10
measure_name: shrunken log2 fold change
reported: -0.152
//
record_sequence: RRIRYRPPRLPRPRPRPYNSPRP
assayed_target: Escherichia coli TOP10
measure_name: shrunken log2 fold change
reported: -0.102
//
record_sequence: RRIRLRPPRLPRPRPRPFGYPRP
assayed_target: Escherichia coli TOP10
measure_name: shrunken log2 fold change
reported: -0.291
//
record_sequence: RRIRQRPPRLPRPRPRPERFPRP
assayed_target: Escherichia coli TOP10
measure_name: shrunken log2 fold change
reported: -0.0441
//
record_sequence: RRIRLRPPRLPRPRPRPKMKPRP
assayed_target: Escherichia coli TOP10
measure_name: shrunken log2 fold change
reported: -0.476
//
record_sequence: RRIRWRPPRLPRPRPRPDKNPRP
assayed_target: Escherichia coli TOP10
measure_name: shrunken log2 fold change
reported: 0.142
//
record_sequence: RRIRMRPPRLPRPRPRPYGHPRP
assayed_target: Escherichia coli TOP10;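 further: peptides expressed intracellularly from a pBAD plasmid library in pooled LB shake-flask culture, induced with 0.3% L-arabinose, DNA abundance read by NGS, three biological replicates, DESeq2 with apeglm shrinkage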
measure_name: shrunken log2 fold change
reported: -0.0791
